# Test Target: Orexin/Hypocretin receptor type 1 (Homo sapiens, UniProt O43613)
# Sequence (O43613 whole entry): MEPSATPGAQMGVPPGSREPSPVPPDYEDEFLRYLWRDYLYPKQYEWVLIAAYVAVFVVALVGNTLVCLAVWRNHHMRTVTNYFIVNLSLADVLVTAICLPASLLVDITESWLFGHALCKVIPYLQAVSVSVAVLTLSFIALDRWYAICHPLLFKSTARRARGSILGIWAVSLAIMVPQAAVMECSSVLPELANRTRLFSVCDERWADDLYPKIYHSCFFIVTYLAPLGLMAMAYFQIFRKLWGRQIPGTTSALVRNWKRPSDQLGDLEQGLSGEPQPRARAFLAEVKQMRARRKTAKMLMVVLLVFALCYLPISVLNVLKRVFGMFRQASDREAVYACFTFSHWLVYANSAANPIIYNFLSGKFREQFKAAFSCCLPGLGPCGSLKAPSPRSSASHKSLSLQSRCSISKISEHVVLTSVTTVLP
Reported Endpoint: Ki (nM)

Substance Smiles	Measurement
COc1ccc(C(=O)Nc2cccc([C@]3(C)O[C@H]4CO[C@@H]5N4[C@H]3O[C@@]5(C)c3cccc(NC(=O)c4ccc(OC)cc4)c3)c2)cc1	5.23

----------
# Test Target: Orexin/Hypocretin receptor type 1 (Homo sapiens)
# Procedure Text: Agonist activity at OX1R (unknown origin) expressed in CHO cells at 10 uM by cell based calcium assay relative to orexin A

Compound	Emax
CCCCCCCCS(=O)(=O)NC[C@@]1(C)O[C@H]2N3[C@@H](CO[C@@H]31)O[C@@]2(C)CNS(=O)(=O)CCCCCCCC	3.71%
CCCCS(=O)(=O)NC[C@@]1(C)O[C@@H]2CO[C@H]3N2[C@@H]1O[C@]3(C)CNS(=O)(=O)CCCC	11.1%
C[C@]1(CNS(C)(=O)=O)O[C@@H]2CO[C@H]3N2[C@@H]1O[C@]3(C)CNS(C)(=O)=O	5.66%
CC(C)(C)OC(=O)NC[C@]1(C)O[C@@H]2CO[C@H]3N2[C@@H]1O[C@@]3(C)CNC(=O)OC(C)(C)C (stereo in doubt; (+)-20d)	5.07%

----------
# Test Target: Orexin receptor type 2 (Homo sapiens, UniProt O43614)
# Procedure Text: Agonist activity at OX2R (unknown origin) expressed in CHO cells by cell based calcium assay

Compound	Test Target	Value Unit	EC50
CCCCCCCCS(=O)(=O)NC[C@]1(C)O[C@@H]2CO[C@H]3N2[C@@H]1O[C@@]3(C)CNS(=O)(=O)CCCCCCCC (stereo in doubt; (+)-28d)	Orexin receptor type 2 (Homo sapiens, UniProt O43614)	nM	1620
CCCCCCCCS(=O)(=O)NC[C@@]1(C)O[C@H]2CO[C@@H]3N2[C@H]1O[C@]3(C)CNS(=O)(=O)CCCCCCCC	Orexin receptor type 2 (Homo sapiens, UniProt O43614)	nM	2420

----------
# Test Target: Orexin receptor type 2 (Homo sapiens) (UniProt O43614)
# Sequence (whole entry): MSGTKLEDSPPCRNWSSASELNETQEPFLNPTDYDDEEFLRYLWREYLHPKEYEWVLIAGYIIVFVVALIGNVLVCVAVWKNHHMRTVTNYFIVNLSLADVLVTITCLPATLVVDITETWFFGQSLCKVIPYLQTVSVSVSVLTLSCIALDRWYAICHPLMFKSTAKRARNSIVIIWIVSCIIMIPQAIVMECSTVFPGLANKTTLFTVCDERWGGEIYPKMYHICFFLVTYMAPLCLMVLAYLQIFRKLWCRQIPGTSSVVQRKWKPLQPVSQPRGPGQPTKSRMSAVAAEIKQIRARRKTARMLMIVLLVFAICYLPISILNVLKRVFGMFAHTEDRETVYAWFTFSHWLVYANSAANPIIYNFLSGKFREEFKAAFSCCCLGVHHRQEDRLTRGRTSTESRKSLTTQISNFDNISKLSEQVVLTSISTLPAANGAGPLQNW
# Procedure Text: Agonist activity at OX2R (unknown origin) expressed in CHO cells at 10 uM by cell based calcium assay
Activity calls are given as the source filed them. The calls are words filed in the database; no cut-off is given here.
Reported Endpoint: Activity

Substance Smiles	Measurement
C=CCOC(=O)NC[C@]1(C)O[C@H]2CO[C@@H]3N2[C@H]1O[C@@]3(C)CNC(=O)OCC=C	inactive
C[C@@]1(CNC(=O)CCc2ccccc2)O[C@H]2CO[C@@H]3N2[C@H]1O[C@@]3(C)CNC(=O)CCc1ccccc1	inactive
CC(=O)NC[C@]1(C)O[C@H]2CO[C@@H]3N2[C@H]1O[C@@]3(C)CNC(C)=O	inactive
C[C@]1(CNS(=O)(=O)c2ccccc2)O[C@H]2CO[C@@H]3N2[C@H]1O[C@]3(C)CNS(=O)(=O)c1ccccc1	inactive
COc1ccccc1C(=O)NC[C@@]1(C)O[C@H]2CO[C@@H]3N2[C@H]1O[C@]3(C)CNC(=O)c1ccccc1OC	inactive
C[C@]1(CNC(=O)OCc2ccccc2)O[C@H]2CO[C@@H]3N2[C@H]1O[C@]3(C)CNC(=O)OCc1ccccc1	inactive
C[C@]1(CNC(=O)c2ccccc2)O[C@H]2CO[C@@H]3N2[C@H]1O[C@]3(C)CNC(=O)c1ccccc1	inactive
CC(C)(C)C(=O)NC[C@@]1(C)O[C@H]2CO[C@@H]3N2[C@H]1O[C@]3(C)CNC(=O)C(C)(C)C	inactive
